# Target system: human PCSK9 (proprotein convertase subtilisin kexin type 9) (human, UniProt Q8NBP7 31-692)
# Sequence (Q8NBP7 31-692 limits assumed): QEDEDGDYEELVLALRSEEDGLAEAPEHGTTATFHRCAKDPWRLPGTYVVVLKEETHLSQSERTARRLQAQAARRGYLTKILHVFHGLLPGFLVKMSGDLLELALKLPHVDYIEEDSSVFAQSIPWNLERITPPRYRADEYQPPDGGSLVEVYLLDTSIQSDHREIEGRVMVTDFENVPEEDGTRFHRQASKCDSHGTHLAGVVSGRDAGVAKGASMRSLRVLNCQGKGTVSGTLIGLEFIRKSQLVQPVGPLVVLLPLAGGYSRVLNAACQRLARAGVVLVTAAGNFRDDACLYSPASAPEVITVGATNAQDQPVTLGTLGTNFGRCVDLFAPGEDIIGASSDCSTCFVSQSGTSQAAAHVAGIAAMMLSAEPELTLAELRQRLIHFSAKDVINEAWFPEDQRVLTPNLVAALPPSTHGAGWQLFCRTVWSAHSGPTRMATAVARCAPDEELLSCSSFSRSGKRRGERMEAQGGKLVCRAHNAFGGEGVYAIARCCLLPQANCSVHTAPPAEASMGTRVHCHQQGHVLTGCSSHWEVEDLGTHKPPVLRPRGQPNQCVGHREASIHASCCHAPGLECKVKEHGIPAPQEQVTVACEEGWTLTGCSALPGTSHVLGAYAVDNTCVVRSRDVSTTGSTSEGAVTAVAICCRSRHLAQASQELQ
# Protocol summary: cell-based or functional assay
Answer each item with its documented LDLR Depletion (% inhibition at 75 nM).
Form entry: value (%) — number only.

Summary for this binder, 2382F02 (designed binder) MGVSDVPRDLEVVAATPTSLLISWDAPAGGGYGYYRITYGETGGNSPVQEFTVPVSKGTATISGLKPGVDYTITVYAVEFDFPGSGYYHRPISINYRTEIDKPSQHHHHHH : LDLR Depletion (% inhibition at 75 nM) is -6.3

LDLR Depletion (% inhibition at 75 nM) reported for this binder 2011B11 (designed binder) MGVSDVPRDLEVVAATPTSLLISWAPPSDAYGYYRITYGETGGNSPVQEFTVPIGKGTATISGLKPGVDYTITVYAVEYPYSHAGYYHRPISINYRTEIDKPSQHHHHHH : 144
